Where these numbers come from: PubChem BioAssay AID1159580

Experiment: chemical genetic growth profiling, strain panel (AID 1159580);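 note: tested at 20 µM; growth read once vehicle control cultures reached saturation at 30 °C; 1 = growth at the plate median or of vehicle wells; lower values mean less growth of the strain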
Conditions: S. cerevisiae deletion strains, growth OD, locus YGL227W, strain vid30, stronger effect = lower value
The campaign covered roughly 5,500 compounds. About 2,000 (36%) were called active. Inconclusive results (about 18%) are left out. Some of the results follow.
valueType: normalized growth

Example results:
• Cc1ccc(C(=O)Nc2ccc(S(=O)(=O)O)c3cc(S(=O)(=O)O)cc(S(=O)(=O)O)c23)cc1NC(=O)c1cccc(NC(=O)Nc2cccc(C(=O)Nc3cc(C(=O)Nc4ccc(S(=O)(=O)O)c5cc(S(=O)(=O)O)cc(S(=O)(=O)O)c45)ccc3C)c2)c1 = 1.03 (inactive)
• C=CCc1ccc(OC)cc1 = 1.01 (inactive)
• Cc1ccc(S(=O)(=O)NC(=O)NN2CCCCCC2)cc1 = 1.01 (inactive)

Kindly review the next compound as well.
Short answer for CCCCNC(=O)NS(=O)(=O)c1ccc(C)cc1 : normalized growth was 1.01 (inactive)

###

Form field: normalized growth (one value per entry).
Assay: chemical genetic growth profiling, strain panel (AID 1159580);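 note: tested at 20 µM; growth read once vehicle control cultures reached saturation at 30 °C; 1 = growth at the plate median or of vehicle wells; lower values mean less growth of the strain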
Details: S. cerevisiae deletion strains, growth OD, locus YNL248C, strain rpa49, stronger effect = lower value
About 2,000 (36%) of roughly 5,500 compounds were called active. Inconclusive results (about 18%) are left out. The list shows a part of the results.
The reply should be a number, written without any unit.

Known normalized growth results, listed for orientation:
• C=C1CCC2[C@](C)(CO)[C@H](O)CC[C@@]2(C)[C@@H]1C/C=C1/C(=O)OC[C@H]1O (stereo partly drawn) = 0.979
• COc1ccc2c(c1)OC1(O)COc3cc(OC)c(OC)cc3C1=C2 (stereo not drawn) = 0.996
• COc1ccc([C@H]2Oc3c(I)c(OC)cc(OC)c3C[C@@H]2O)cc1OC = 1.01
• CCN1CCCC(OC(=O)C(c2ccccc2)c2ccccc2)C1 (stereo not drawn) = 0.989
• COc1cc2nc(N(C)CCCNC(=O)C3CCCO3)nc(N)c2cc1OC (stereo not drawn) = 0.982
• C=C[C@@](C)(O)CCC1C(=C)C[C@H](O)C2C(C)(C)CCCC12C (stereo partly drawn) = 0.984
• CC1(O)CC2C(CC1O)C2(C)C (stereo not drawn) = 1

--- query ---
response.value for Oc1cc(O)c2c(c1)O[C@H](c1ccc(O)c(O)c1)[C@H](O)C2 (field: normalized growth) = 1

###

Test: chemical genetic growth profiling, strain panel (AID 1159580);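 note: tested at 20 µM; growth read once vehicle control cultures reached saturation at 30 °C; 1 = growth at the plate median or of vehicle wells; lower values mean less growth of the strain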
Details: S. cerevisiae deletion strains, growth OD, locus YOR231W, strain MKK1, stronger effect = lower value
Screen size: about 5,500 compounds; about 2,000 (36%) were called active. Another 18% or so got no clear call; they are omitted. Some of the results follow.
normalized growth listing for selected molecules.
Answer as a number with no unit attached.

* CCOC(=O)C1C(c2c(F)cccc2Cl)C(C(=O)OCC)C(O)(C(F)(F)F)NC1(O)C(F)(F)F (stereo not drawn) | 1
* CC[C@@]1(O)C[C@H](O[C@H]2C[C@H](N(C)C)[C@H](O)[C@H](C)O2)c2c(cc3c(c2O)C(=O)c2c(O)ccc(O)c2C3=O)[C@H]1C(=O)OC | 0.975

# evaluate next
Entry under test: CC[C@@]1(O)C[C@H](O[C@H]2C[C@H](N(C)C)[C@H](O)[C@H](C)O2)c2c(cc3c(c2O)C(=O)c2c(O)cccc2C3=O)[C@H]1C(=O)OC . Its normalized growth was 0.994
